Hi there, I'd appreciate the recorded human MASP1 IC50 for every entry that follows.
- STUDY_SYSTEM: T1, recombinant human MASP1 active protease (amino acids 297-699, C-terminal His Tag) (human, UniProt P48740 297-699)
- T1 sequence: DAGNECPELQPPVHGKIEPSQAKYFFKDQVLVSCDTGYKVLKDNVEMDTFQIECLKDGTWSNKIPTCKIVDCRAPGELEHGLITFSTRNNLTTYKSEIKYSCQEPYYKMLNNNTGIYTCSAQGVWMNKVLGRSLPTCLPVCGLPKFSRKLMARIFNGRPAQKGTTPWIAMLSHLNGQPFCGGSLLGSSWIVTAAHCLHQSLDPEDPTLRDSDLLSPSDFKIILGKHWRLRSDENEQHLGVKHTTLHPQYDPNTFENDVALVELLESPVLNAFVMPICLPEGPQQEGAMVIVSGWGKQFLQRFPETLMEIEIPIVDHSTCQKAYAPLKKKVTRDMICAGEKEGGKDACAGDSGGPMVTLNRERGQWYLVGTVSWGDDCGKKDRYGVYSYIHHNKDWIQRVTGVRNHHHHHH
- MEASUREMENT_NOTES: cell-based or functional assay
Numbered stars: 1 amine (or outer) side, 2 acyl side, 3 side chain; on linkers, the order of the positions; unused ones are H or OH. Bridge positions count the residues as written; N and C are the ends. Square brackets hold non-standard residues; d marks the D form. Ends that are not written are not given here. Pro(trans-4-F) = O=C(O)[C@@H]1C[C@@H](F)CN1; Oic = O=C(O)[C@@H]1C[C@@H]2CCCC[C@@H]2N1; βPro(3S) = O=C([C@H]1CCN([*:1])C1)[*:2]; Pen = CC(C)(S)[C@H](N)C(=O)O; PEG2 = NCCOCCOCCC(=O)O; Sar = CNCC(=O)O
Kindly answer with a numeric value in nM, unit omitted.

stdin: Fill in the blank: the reported human MASP1 IC50 of [Sar]ICSRSLP[Oic]I[Pen]IP[βPro(3S)]-OH (disulfide 3-11; N-terminus assumed; SMILES CC[C@H](C)[C@H](NC(=O)CNC)C(=O)N[C@H]1CSSC(C)(C)[C@@H](C(=O)N[C@H](C(=O)N2CCC[C@H]2C(=O)N2CC[C@H](C(=O)O)C2)[C@@H](C)CC)NC(=O)[C@H]([C@@H](C)CC)NC(=O)[C@@H]2C[C@@H]3CCCC[C@@H]3N2C(=O)[C@@H]2CCCN2C(=O)[C@H](CC(C)C)NC(=O)[C@H](CO)NC(=O)[C@H](CCCNC(=N)N)NC(=O)[C@H](CO)NC1=O) [Example 456: ((N-Me)G)-IC+SRSLP-(Oic)-I-(Pen)+IP-((S)-Pyrrolidine-3-carboxylic acid)-OH] is ____.
stdout: 1.9

stdin: Looking for the measured human MASP1 IC50 of [Sar]ICSRSLPPICIPN-OH (disulfide 3-11; N-terminus assumed; SMILES CC[C@H](C)[C@H](NC(=O)CNC)C(=O)N[C@H]1CSSC[C@@H](C(=O)N[C@H](C(=O)N2CCC[C@H]2C(=O)N[C@@H](CC(N)=O)C(=O)O)[C@@H](C)CC)NC(=O)[C@H]([C@@H](C)CC)NC(=O)[C@@H]2CCCN2C(=O)[C@@H]2CCCN2C(=O)[C@H](CC(C)C)NC(=O)[C@H](CO)NC(=O)[C@H](CCCNC(=N)N)NC(=O)[C@H](CO)NC1=O) [Example 394: ((N-Me)G)-IC+SRSLPPIC+IPN-OH] , can you help?
stdout: 52

stdin: # human MASP1 IC50 lookup, item [PEG2]GICSRSLPPICIPD-OH (disulfide 4-12; N-terminus assumed; SMILES CC[C@H](C)[C@H](NC(=O)CNC(=O)CCOCCOCCN)C(=O)N[C@H]1CSSC[C@@H](C(=O)N[C@H](C(=O)N2CCC[C@H]2C(=O)N[C@@H](CC(=O)O)C(=O)O)[C@@H](C)CC)NC(=O)[C@H]([C@@H](C)CC)NC(=O)[C@@H]2CCCN2C(=O)[C@@H]2CCCN2C(=O)[C@H](CC(C)C)NC(=O)[C@H](CO)NC(=O)[C@H](CCCNC(=N)N)NC(=O)[C@H](CO)NC1=O) [Example 409: (PEG1(10 atoms))-GIC+SRSLPPIC+IPD-OH]
stdout: 71

stdin: For [Sar]ICSRSL[Pro(trans-4-F)]PICIPD-OH (disulfide 3-11; N-terminus assumed; SMILES CC[C@H](C)[C@H](NC(=O)CNC)C(=O)N[C@H]1CSSC[C@@H](C(=O)N[C@H](C(=O)N2CCC[C@H]2C(=O)N[C@@H](CC(=O)O)C(=O)O)[C@@H](C)CC)NC(=O)[C@H]([C@@H](C)CC)NC(=O)[C@@H]2CCCN2C(=O)[C@@H]2C[C@@H](F)CN2C(=O)[C@H](CC(C)C)NC(=O)[C@H](CO)NC(=O)[C@H](CCCNC(=N)N)NC(=O)[C@H](CO)NC1=O) [Example 354: ((N-Me)G)-IC+SRSL-((trans-4-Fluoro)P)-PIC+IPD-OH] , what is its reported human MASP1 IC50?
stdout: 29
